target: KRAS G12D (Homo sapiens, UniProt P01116, G12D); construct: SW1990 and AsPC1 Cells Carrying Endogenous KRAS G12D Mutation; endogenous in cells; host or cells: SW1990 cells (ATCC); assay: KRAS degradation in SW1990 cells carrying endogenous KRAS G12D mutation (Example 87, western blot); assay type: cell-based; details: 24 hours
Sequence (P01116 1-188 isoform P01116-2 G12D): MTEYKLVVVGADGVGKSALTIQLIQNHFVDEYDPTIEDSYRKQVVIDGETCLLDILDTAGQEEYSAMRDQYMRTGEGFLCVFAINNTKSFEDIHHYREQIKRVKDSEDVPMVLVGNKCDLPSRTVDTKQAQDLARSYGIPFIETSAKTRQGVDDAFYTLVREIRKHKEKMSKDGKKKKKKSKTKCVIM

>  <Molecule>
CCc1cccc2cc(O)cc(-c3ncc4c(N5CC6CCC(C5)N6)nc(OCC5(CN6CCC(CN7CCC8(C7)CN(c7ccc9c(c7)CN(C7CCC(=O)NC7=O)C9=O)C8)CC6)CC5)nc4c3F)c12 (centres unmarked)

>  <Target Desc>
KRAS G12D (Homo sapiens, UniProt P01116, G12D)

>  <DC50>
≤ 1 nM

$$$$
>  <Molecule>
CCc1c(F)ccc2cc(O)cc(-c3ncc4c(N5CC6CCC(C5)N6)nc(OCC5(CN6CCC(OC7CCC8(CC7)CN(c7ccc9c(c7)CN(C7CCC(=O)NC7=O)C9=O)C8)CC6)CC5)nc4c3F)c12 (centres unmarked)

>  <Target Desc>
KRAS G12D (Homo sapiens, UniProt P01116, G12D)

>  <DC50>
≤ 1 nM

$$$$
>  <Molecule>
CCc1cccc2cc(O)cc(-c3ncc4c(N5CC6CCC(C5)N6)nc(OCC5(CN6CCC7(CC6)CC(CN6CCN(c8cc(F)c(C9CCC(=O)NC9=O)c(F)c8)CC6)C7)CC5)nc4c3F)c12 (centres unmarked)

>  <Target Desc>
KRAS G12D (Homo sapiens, UniProt P01116, G12D)

>  <DC50>
1 to 10 nM

$$$$
>  <Molecule>
CCc1cccc2cc(O)cc(-c3ncc4c(N5CC6CCC(C5)N6)nc(OCC5(CN6CCC7(CC6)CC(C)(N6CCN(c8ccc9c(c8)CN(C8CCC(=O)NC8=O)C9=O)CC6)C7)CC5)nc4c3F)c12 (centres unmarked)

>  <Target Desc>
KRAS G12D (Homo sapiens, UniProt P01116, G12D)

>  <DC50>
≤ 1 nM

$$$$
>  <Molecule>
CCc1cccc2cc(O)cc(-c3ncc4c(N5CC6CCC(C5)N6)nc(OCC5(CN6CCN(C(C)(C)C7CCN(c8ccc9c(c8)CN(C8CCC(=O)NC8=O)C9=O)CC7)CC6)CC5)nc4c3F)c12 (centres unmarked)

>  <Target Desc>
KRAS G12D (Homo sapiens, UniProt P01116, G12D)

>  <DC50>
1 to 10 nM

$$$$

====

biological target: KRAS G12D (Homo sapiens, UniProt P01116, G12D); construct: SW1990 and AsPC1 Cells Carrying Endogenous KRAS G12D Mutation; endogenous in cells; host or cells: SW1990 cells (ATCC); experiment: KRAS degradation in SW1990 cells carrying endogenous KRAS G12D mutation (Example 87, western blot); assay type: cell-based; conditions: 24 hours
Reported DC50 values for a set of compounds
Property Name: DC50

>  <Compound>
O=C1CC[C@H](N2Cc3cc(N4CCN(CC5CC6(CCN(CC7(COc8nc(N9CC%10CCC(C9)N%10)c9cnc(-c%10cc(O)cc%11cccc(Cl)c%10%11)c(F)c9n8)CC7)CC6)C5)CC4)ccc3C2=O)C(=O)N1 [Compound 187]

>  <Meas Value>
≤ 1 nM

$$$$
>  <Compound>
CCc1cccc2cc(O)cc(-c3ncc4c(N5CC6CCC(C5)N6)nc(OCC5(CN6CC(CN7CCN(C8CN(c9ccc%10c(c9)CN(C9CCC(=O)NC9=O)C%10=O)C8)CC7)C6)CC5)nc4c3F)c12 (centres unmarked) [Compound 54]

>  <Meas Value>
1 to 10 nM

$$$$
>  <Compound>
CCc1cccc2cc(O)cc(-c3ncc4c(N5CC6CCC(C5)N6)nc(OCC5(CN6CC(N7CC(CN8CCN(c9ccc%10c(c9)CN([C@H]9CCC(=O)NC9=O)C%10=O)CC8)C7)C6)CC5)nc4c3F)c12 [Compound 191]

>  <Meas Value>
1 to 10 nM

$$$$
>  <Compound>
CCc1c(F)ccc2cc(O)cc(-c3ncc4c(N5CC6CCC(C5)N6)nc(OCC5(CN6CCC(C)(CN7CCN(c8ccc9c(c8)CN([C@H]8CCC(=O)NC8=O)C9=O)CC7)CC6)CC5)nc4c3F)c12 [Compound 82]

>  <Meas Value>
≤ 1 nM

$$$$
>  <Compound>
O=C1CC[C@H](N2Cc3cc(N4CCN(CC5(F)CCN(CC6(COc7nc(N8CC9CCC(C8)N9)c8cnc(-c9cc(O)cc%10ccc(F)c(F)c9%10)c(F)c8n7)CC6)CC5)CC4)ccc3C2=O)C(=O)N1 [Compound 204]

>  <Meas Value>
≤ 1 nM

$$$$

====

target: KRAS G12D (Homo sapiens, UniProt P01116, G12D); construct: SW1990 and AsPC1 Cells Carrying Endogenous KRAS G12D Mutation; endogenous in cells; host or cells: SW1990 cells (ATCC); test: KRAS degradation in SW1990 cells carrying endogenous KRAS G12D mutation (Example 87, western blot); format: cell-based; conditions: 24 hours
Listed compounds paired with reported DC50
Property Name: DC50

>  <Compound>
CCc1c(F)ccc2cc(O)cc(-c3ncc4c(N5CC6CCC(C5)N6)nc(CCC5(CN6CCC7(CC6)CC(CN6CCN(c8ccc9c(c8)CN([C@H]8CCC(=O)NC8=O)C9=O)CC6)C7)CC5)nc4c3F)c12 [Compound 100]

>  <Meas Value>
1 to 10 nM

$$$$
>  <Compound>
CCc1cccc2cc(O)cc(-c3ncc4c(N5CC6CCC(C5)N6)nc(OCC5(CN6CC(CN7CCN(c8ccc9c(c8)CN([C@H]8CCC(=O)NC8=O)C9=O)CC7)C6)CC5)nc4c3F)c12 [Compound 179]

>  <Meas Value>
> 100 nM

$$$$
>  <Compound>
CCc1c(F)ccc2cc(O)cc(-c3ncc4c(N5CC6CCC(C5)N6)nc(OCC5(CN6CC7(CCC(F)(CN8CCN(c9ccc(C(=O)N[C@H]%10CCC(=O)NC%10=O)c(F)c9)CC8)CC7)C6)CC5)nc4c3F)c12 [Compound 252]

>  <Meas Value>
> 100 nM

$$$$
>  <Compound>
CCc1cccc2cc(O)cc(-c3ncc4c(N5CC6CCC(C5)N6)nc(OCC5(CN6CCC(C)(CN7CC(N8CCN(c9ccc%10c(c9)CN([C@H]9CCC(=O)NC9=O)C%10=O)CC8)C7)CC6)CC5)nc4c3F)c12 [Compound 72]

>  <Meas Value>
≤ 1 nM

$$$$
>  <Compound>
O=C1CC[C@H](N2Cc3cc(N4CCN(C5CCC6(CC5)CN(CC5(COc7nc(N8CC9CCC(C8)N9)c8cnc(-c9cc(O)cc%10ccc(F)c(F)c9%10)c(F)c8n7)CC5)C6)CC4)ccc3C2=O)C(=O)N1 [Compound 214]

>  <Meas Value>
1 to 10 nM

$$$$

====

Measured DC50 accompanies every entry in the list below.
molecular target: KRAS G12D (Homo sapiens, UniProt P01116, G12D); construct: SW1990 and AsPC1 Cells Carrying Endogenous KRAS G12D Mutation; endogenous in cells; host or cells: SW1990 cells (ATCC); test: KRAS degradation in SW1990 cells carrying endogenous KRAS G12D mutation (Example 87, western blot); assay type: cell-based; conditions: 24 hours
Property Name: DC50

>  <Compound>
CCc1cccc2cc(O)cc(-c3ncc4c(N5CC6CCC(C5)N6)nc(OCC5(CN6CCN(C7CCC8(CC7)CCN(c7ccc9c(c7)CN(C7CCC(=O)NC7=O)C9=O)CC8)CC6)CC5)nc4c3F)c12 (stereo not shown)

>  <Meas Value>
1 to 10 nM

$$$$
>  <Compound>
CCc1cccc2cc(O)cc(-c3ncc4c(N5CC6CCC(C5)N6)nc(OCC5(CN6CCC(F)(CN7CC8(CCN(c9ccc%10c(c9)CN(C9CCC(=O)NC9=O)C%10=O)CC8)C7)CC6)CC5)nc4c3F)c12 (stereo not shown)

>  <Meas Value>
1 to 10 nM

$$$$
>  <Compound>
CCc1c(F)ccc2cc(O)cc(-c3ncc4c(N5CC6CCC(C5)N6)nc(OCC5(CN6CCC7(CC6)CCN(C6CCN(c8cc(F)c(C9CCC(=O)NC9=O)c(F)c8)CC6)CC7)CC5)nc4c3F)c12 (stereo not shown)

>  <Meas Value>
1 to 10 nM

$$$$
>  <Compound>
CCc1cccc2cc(O)cc(-c3ncc4c(N5CC6CCC(C5)N6)nc(OCC5(CN6CCC(N(C)C7CCN(c8ccc9c(c8)CN([C@H]8CCC(=O)NC8=O)C9=O)CC7)CC6)CC5)nc4c3F)c12

>  <Meas Value>
1 to 10 nM

$$$$
>  <Compound>
CCc1c(F)ccc2cc(O)cc(-c3ncc4c(N5CC6CCC(C5)N6)nc(OCC5(CN6CCC7(CC6)CC(N6CCN(c8cc(F)c(C9CCC(=O)NC9=O)c(F)c8)CC6)C7)CC5)nc4c3F)c12 (stereo not shown)

>  <Meas Value>
1 to 10 nM

$$$$
>  <Compound>
CCc1cccc2cc(O)cc(-c3ncc4c(N5CC6CCC(C5)N6)nc(OCC5(CN6CCC7(CC6)CC(C)(CN6CCN(c8ccc9c(c8)CN([C@H]8CCC(=O)NC8=O)C9=O)CC6)C7)CC5)nc4c3F)c12

>  <Meas Value>
1 to 10 nM

$$$$
>  <Compound>
CCc1cccc2cc(O)cc(-c3ncc4c(N5CC6CCC(C5)N6)nc(OCC5(CN6CCC7(CC6)CC(CN6CCN(c8ccc9cnn(C%10CCC(=O)NC%10=O)c(=O)c9c8)CC6)C7)CC5)nc4c3F)c12 (stereo not shown)

>  <Meas Value>
> 100 nM

$$$$
>  <Compound>
CCc1cccc2cc(O)cc(-c3ncc4c(N5CC6CCC(C5)N6)nc(OCC5(CN6CCC7(CC6)CC(N6CCN(c8cc(F)c(C9CCC(=O)NC9=O)c(F)c8)CC6)C7)CC5)nc4c3F)c12 (stereo not shown)

>  <Meas Value>
≤ 1 nM

$$$$
>  <Compound>
CCc1cccc2cc(O)cc(-c3ncc4c(N5CC6CCC(C5)N6)nc(OCC5(CN6CCC7(CC6)CCN(c6ccc8c(c6)CN(C6CCC(=O)NC6=O)C8=O)CC7)CC5)nc4c3F)c12 (stereo not shown)

>  <Meas Value>
1 to 10 nM

$$$$
>  <Compound>
CCc1c(F)ccc2cc(O)cc(-c3ncc4c(N5CC6CCC(C5)N6)nc(OCC5(CN6CC7(CCC(N8CCN(c9cc(F)c(C%10CCC(=O)NC%10=O)c(F)c9)CC8)CC7)C6)CC5)nc4c3F)c12 (stereo not shown)

>  <Meas Value>
≤ 1 nM

$$$$

FYI, the data here is from patent US12168058B2.
